This collection of values is drawn from ChEMBL document CHEMBL5625200.

target: Endothelin-1 receptor (Homo sapiens, UniProt P25101); assay: Antagonist activity against human ET-1 by ELISA analysis
Sequence (P25101 whole entry): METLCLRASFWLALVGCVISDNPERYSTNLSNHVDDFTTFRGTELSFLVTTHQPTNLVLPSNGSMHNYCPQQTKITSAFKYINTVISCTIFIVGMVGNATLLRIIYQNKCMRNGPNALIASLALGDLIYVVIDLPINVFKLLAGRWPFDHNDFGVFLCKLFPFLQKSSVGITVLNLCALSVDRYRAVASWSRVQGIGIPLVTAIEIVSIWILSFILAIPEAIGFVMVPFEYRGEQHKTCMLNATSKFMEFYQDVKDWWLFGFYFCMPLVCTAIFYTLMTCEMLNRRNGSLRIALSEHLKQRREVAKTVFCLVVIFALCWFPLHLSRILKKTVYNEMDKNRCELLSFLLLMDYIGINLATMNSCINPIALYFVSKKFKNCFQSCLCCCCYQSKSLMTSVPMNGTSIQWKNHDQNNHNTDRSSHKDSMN
// pIC50 lookup, one value per entry
In textbook form, pIC50 equals minus log to base ten of the concentration in mol/L.

Query :: Reported pIC50 for COc1ccccc1Oc1c(NS(C)(=O)=O)nc(-c2ncccn2)nc1OCC1CCCN(C)C1 (configuration not stated) : what is it?
Result :: 8.70

Query :: State the recorded pIC50 for this entry: COc1ccccc1Oc1c(NS(=O)(=O)c2ccc(C(C)(C)C)cc2)nc(-c2ncccn2)nc1OCC(F)F
Result :: 9.11

Query :: Can you share its pIC50? I mean this molecule: COc1ccccc1Oc1c(NS(=O)(=O)c2ccccc2)nc(-c2ncccn2)nc1OCC1CCCN(C)C1 (configuration not stated)
Result :: 8.47

Query :: What measured pIC50 goes with COc1ccccc1Oc1c(NS(=O)(=O)c2ccc(C(C)(C)C)cc2)nc(-c2ncccn2)nc1OCC1CCCC1 ?
Result :: 8.94

Query :: pIC50 for COc1ccccc1Oc1c(NS(=O)(=O)c2ccccc2)nc(-c2ncccn2)nc1OCCC(C)C ?
Result :: 8.76

Query :: Give the measured pIC50 of COc1ccccc1Oc1c(NS(=O)(=O)c2ccc(C)cc2)nc(-c2ncccn2)nc1OCCC(C)C .
Result :: 8.86

Query :: Consider the molecule shown here: CC#CCOc1nc(-c2ncccn2)nc(NS(=O)(=O)c2ccc(C)cc2)c1Oc1ccccc1OC What is its recorded pIC50?
Result :: 8.52
